# assay.target: T1, Chryseobacterium sp-62563 deamidase polypeptide (second polypeptide, deamidase domain), wildtype (Chryseobacterium sp-62563)
# T1 sequence: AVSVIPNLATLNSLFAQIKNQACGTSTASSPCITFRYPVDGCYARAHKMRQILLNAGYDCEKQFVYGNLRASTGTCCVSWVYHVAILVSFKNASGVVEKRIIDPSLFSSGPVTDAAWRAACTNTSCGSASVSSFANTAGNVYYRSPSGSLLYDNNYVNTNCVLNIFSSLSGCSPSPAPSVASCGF
# measurement.notes: cell-based or functional assay
Kindly supply the reported Leakage activity values for the records listed here.
Numeric answer only, unit % assumed.

For reference, reported Leakage activity for Chryseobacterium sp-62563 propeptide V98Y (protein) NQDPNLVAKESNETAMKDFGKTVPVGIEKEDGKFKISFMVTAQPYEIKDSKENAAYISMIKTAVENETPIHVFLKANTNEIAKVDKATDDDIRYFKSYFTKEVKEENRK stands at 0

For reference, reported Leakage activity for Chryseobacterium sp-62563 propeptide V7P (protein) NQDPNLPAKESNETAMKDFGKTVPVGIEKEDGKFKISFMVTAQPYEIKDSKENAAYISMIKTAVENETPIHVFLKANTNEIAKVDKATDDDIRYFKSVFTKEVKEENRK stands at 0

For reference, reported Leakage activity for Chryseobacterium sp-62563 propeptide F38A (protein) NQDPNLVAKESNETAMKDFGKTVPVGIEKEDGKFKISAMVTAQPYEIKDSKENAAYISMIKTAVENETPIHVFLKANTNEIAKVDKATDDDIRYFKSVFTKEVKEENRK stands at 2

For reference, reported Leakage activity for Chryseobacterium sp-62563 propeptide Y94P (protein) NQDPNLVAKESNETAMKDFGKTVPVGIEKEDGKFKISFMVTAQPYEIKDSKENAAYISMIKTAVENETPIHVFLKANTNEIAKVDKATDDDIRPFKSVFTKEVKEENRK stands at 3

For reference, reported Leakage activity for Chryseobacterium sp-62563 propeptide Q43H (protein) NQDPNLVAKESNETAMKDFGKTVPVGIEKEDGKFKISFMVTAHPYEIKDSKENAAYISMIKTAVENETPIHVFLKANTNEIAKVDKATDDDIRYFKSVFTKEVKEENRK stands at 0

For reference, reported Leakage activity for Chryseobacterium sp-62563 propeptide Y94A (protein) NQDPNLVAKESNETAMKDFGKTVPVGIEKEDGKFKISFMVTAQPYEIKDSKENAAYISMIKTAVENETPIHVFLKANTNEIAKVDKATDDDIRAFKSVFTKEVKEENRK stands at 0

For reference, reported Leakage activity for Chryseobacterium sp-62563 propeptide Y45T (protein) NQDPNLVAKESNETAMKDFGKTVPVGIEKEDGKFKISFMVTAQPTEIKDSKENAAYISMIKTAVENETPIHVFLKANTNEIAKVDKATDDDIRYFKSVFTKEVKEENRK stands at 2

For reference, reported Leakage activity for Chryseobacterium sp-62563 propeptide E10P (protein) NQDPNLVAKPSNETAMKDFGKTVPVGIEKEDGKFKISFMVTAQPYEIKDSKENAAYISMIKTAVENETPIHVFLKANTNEIAKVDKATDDDIRYFKSVFTKEVKEENRK stands at 0
